Source of measurements: patent US10189843B2

experimental system: Human autotaxin enzyme (Homo sapiens, UniProt Q13822)
pIC50: −log10 of the molar value.
property name: pIC50

Solved cases (6 shown):
CCCCCC1CN(CC(=O)N2CCC(CC(C)C)C2)C(=O)c2cc(-c3ccc(Cl)cc3)nn21 (centres unmarked) :: 6.00 to 7.00
CC(=O)Nc1cc(C#N)ccc1-c1cc2n(n1)[C@@H](C)CN(CC1CCCO1)C2=O (some centres unmarked) :: 7.00 to 8.00
CCCCC1CN(Cc2ccc(C#N)cc2)C(=O)c2cc(-c3ccc(Cl)cn3)nn21 (centres unmarked) :: 6.00 to 7.00
CCOC(=O)CN1CC(CC)n2nc(-c3ccc(Cl)cc3)cc2C1=O (centres unmarked) :: ≤ 6.00
CCCCCC1CN(Cc2ccc(CC(=O)OC)cc2)C(=O)c2cc(-c3ccc(Cl)cc3)nn21 (centres unmarked) :: ≤ 6.00
O=C(O)C1CN(C(=O)CN2C(=O)c3cc(-c4ccc(Cl)cc4)nn3C3COCC32)C1 (centres unmarked) :: ≤ 6.00

Lab note: measured pIC50 of CCCCCC1CN(CC(=O)N2CCCCC2C(=O)O)C(=O)c2cc(-c3ccc(Cl)cc3)nn21 (centres unmarked) was > 8.00

Lab note: measured pIC50 of CCCCCC1CN(CC(=O)N2CCC(C(N)=O)CC2)C(=O)c2cc(-c3ccc(Cl)cc3)nn21 (centres unmarked) was ≤ 6.00
